assay: IV pharmacokinetics in Sprague Dawley rats; type: in vivo; settings: Sprague-Dawley, rat, in vivo, iv, 2 mg/kg, normal saline
So I've got a bunch of compounds here, and I need their AUC(0-t) values.
Numbers only, in ng·h/mL.

A selection of reference data follows.
CN1CCCC12CC=CCNC2=O (single isomer, unassigned) [GC-1] :: 1020
CC(C)C(=O)N1CCCC12CC=CCNC2=O (single isomer, unassigned) [GH-2] :: 1990
O=C1NCC=CCC12CC(F)(F)CN2 (single isomer, unassigned) [GL-2] :: 11500
O=C1N(Cc2ccc(F)cc2)CC=CCC12CCCN2 (single isomer, unassigned) [GK-1] :: 335
O=C1NCCCC[C@]12CCCN2 [AU-1, (S)-1,7-diazaspiro[4.6]undecan-6-one] :: 1840

Then this compound:
// AUC(0-t) lookup, compound = O=C1NCCCC12CCCCN2 (single isomer, unassigned) [AX, 1,8-diazaspiro[5.5]undecan-7-one] , result: 1360

---

biological target: NMDAR2A (Homo sapiens, UniProt Q12879); construct: expressed in transfected cells; host or cells: HEK cells (membrane extract); experiment: NMDAR agonist assay, [3H]MK-801 binding, NMDAR2A expressing HEK cell membranes; assay type: biochemical; details: 0.25 h, 50 μM glutamate; relative to 1 mM glycine; read-out: NMDAR2A A: % maximal [3H]MK-801 binding relative to 1 mM glycine
Sequence (Q12879 23-1464, species assumed, other chains not shown): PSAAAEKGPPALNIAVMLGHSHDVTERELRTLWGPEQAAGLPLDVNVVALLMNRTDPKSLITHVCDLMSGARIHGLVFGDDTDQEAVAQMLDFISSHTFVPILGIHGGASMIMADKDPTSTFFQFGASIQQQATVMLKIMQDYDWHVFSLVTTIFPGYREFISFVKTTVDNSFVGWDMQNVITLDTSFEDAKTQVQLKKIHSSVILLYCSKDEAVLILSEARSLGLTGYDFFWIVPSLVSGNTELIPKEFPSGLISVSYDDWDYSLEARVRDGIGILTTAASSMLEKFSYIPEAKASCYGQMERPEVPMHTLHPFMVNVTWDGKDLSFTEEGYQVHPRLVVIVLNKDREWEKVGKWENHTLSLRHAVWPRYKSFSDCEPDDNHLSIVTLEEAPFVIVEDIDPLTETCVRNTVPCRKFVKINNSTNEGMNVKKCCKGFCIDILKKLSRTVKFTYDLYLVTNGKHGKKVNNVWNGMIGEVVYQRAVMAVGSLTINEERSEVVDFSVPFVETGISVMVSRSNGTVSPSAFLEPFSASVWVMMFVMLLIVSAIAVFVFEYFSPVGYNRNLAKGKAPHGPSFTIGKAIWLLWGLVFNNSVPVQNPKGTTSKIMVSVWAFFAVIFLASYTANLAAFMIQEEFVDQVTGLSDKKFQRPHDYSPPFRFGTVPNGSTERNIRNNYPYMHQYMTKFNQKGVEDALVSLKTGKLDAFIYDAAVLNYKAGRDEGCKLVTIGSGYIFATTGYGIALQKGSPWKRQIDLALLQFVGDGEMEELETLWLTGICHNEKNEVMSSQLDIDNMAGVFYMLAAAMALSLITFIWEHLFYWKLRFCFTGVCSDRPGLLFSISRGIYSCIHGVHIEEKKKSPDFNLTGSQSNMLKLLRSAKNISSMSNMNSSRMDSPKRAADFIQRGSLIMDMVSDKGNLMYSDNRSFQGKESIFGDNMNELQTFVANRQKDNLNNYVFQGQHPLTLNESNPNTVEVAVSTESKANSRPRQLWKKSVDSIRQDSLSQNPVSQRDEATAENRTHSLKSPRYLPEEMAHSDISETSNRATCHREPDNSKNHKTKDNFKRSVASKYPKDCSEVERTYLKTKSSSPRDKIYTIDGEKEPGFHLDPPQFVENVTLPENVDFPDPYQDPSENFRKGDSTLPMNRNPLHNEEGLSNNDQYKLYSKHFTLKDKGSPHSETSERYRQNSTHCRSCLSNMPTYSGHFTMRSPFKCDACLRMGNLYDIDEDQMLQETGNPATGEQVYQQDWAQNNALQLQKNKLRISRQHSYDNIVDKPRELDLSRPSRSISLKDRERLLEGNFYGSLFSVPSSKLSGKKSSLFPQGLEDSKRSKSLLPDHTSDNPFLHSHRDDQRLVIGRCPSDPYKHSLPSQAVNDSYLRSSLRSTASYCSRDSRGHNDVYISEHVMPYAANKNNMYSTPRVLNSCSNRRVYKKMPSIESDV
OBSERVABLE: Emax

A selection of reference data follows.
O=C1NCC=CCC12CC(F)(F)CN2 (single isomer, unassigned) :: < 100%
CC(C)(C)OC(=O)N1CCCC12CCCNC2=O (single isomer, unassigned) :: < 100%
CN1CC=CCC2(CCCN2Cc2ccccc2)C1=O (single isomer, unassigned) :: < 100%
O=C1NCC=CCC12CCCN2Cc1ccc(F)cc1 (single isomer, unassigned) :: < 100%
CN1CCCC12CC=CCNC2=O (single isomer, unassigned) :: < 100%

Then this molecule:
// Emax lookup, molecule = CC(C)C(=O)N1CCCC12CC=CCNC2=O (single isomer, unassigned) , result: < 100%

---

test: IV pharmacokinetics in Sprague Dawley rats; type: in vivo; conditions: Sprague-Dawley, rat, in vivo, iv, 2 mg/kg, normal saline, read-out: Cmax
So I've got a bunch of compounds here, and I need their log10 of Cmax values.
Each number you see is log10 of Cmax, and the unit inside the log is ng/mL.

CC(C)C(=O)N1CCC2(CCCN2C(=O)C(C)C)C1=O (single isomer, unassigned) [GU-1] :: 3.77
O=C1NCC=CC[C@]12CCCN2 [GA, (R)-1,7-diazaspiro[4.6]undec-9-en-6-one] :: 3.17
O=C1NCCCC12CCCCN2 (single isomer, unassigned) [AX, 1,8-diazaspiro[5.5]undecan-7-one] :: 3.15
NC(=O)CN1CCCC12CC=CCNC2=O (single isomer, unassigned) [GQ-2] :: 3.36
O=C1NCCCCC12CCCCN2 (single isomer, unassigned) [AZ, 1,8-diazaspiro[5.6]dodecan-7-one] :: 4.25
O=C1NCCCCC12CCCNC2 (single isomer, unassigned) [CF, 2,8-diazaspiro[5.6]dodecan-7-one] :: 3.30
CC(=O)N1CCCC12CC=CCNC2=O (single isomer, unassigned) [GG-2] :: 3.53
O=C1N(Cc2ccc(F)cc2)CC=CCC12CCCN2 (single isomer, unassigned) [GK-1] :: 2.93

Give log10 of Cmax for each of the items listed below.
1. CN1CC=CCC2(CCCN2Cc2ccccc2)C1=O (single isomer, unassigned) [GT-1]
2. CN1CCCC12CC=CCNC2=O (single isomer, unassigned) [GC-1]
3. CC(C)C(=O)N1CCCC12CC=CCNC2=O (single isomer, unassigned) [GH-2]

2.62
3.08
3.18

Give log10 of Cmax for each of the items listed below.
1. O=C1NCC=CCC12CC(F)(F)CN2 (single isomer, unassigned) [GL-2]
2. O=C1NCCCC12CCCN2 (stereo not shown) [EU-2, 1,7-diazaspiro[4.5]decan-6-one]

[3.21, 3.33]
